- test system: Inadl_9, Q8NI35
- Sequence (Q8NI35 1530-1615): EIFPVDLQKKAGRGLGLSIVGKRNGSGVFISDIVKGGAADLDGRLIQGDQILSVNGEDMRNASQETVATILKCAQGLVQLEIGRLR
- assay details: holdup assay
- Design: key: below the threshold = too weak to quantify, mostly under pKd 3.1 to 4
- assay conditions: plain residues with an end cap or a label only (N-terminal biotin on a linker: ttds)
measurement type: pKd

VLRLQSETSV [VANGL1, Q8TAA9]    below the threshold
TVASEKESVM [SLC1A5, Q15758]    below the threshold
STLTIFETAL [ABCC4, O15439]    below the threshold
